# ASSAY_SUMMARY: Half life in cynomolgus monkey at 2.7 mg/kg, iv
# Format: ADME, organism-based, Macaca fascicularis
# Set-up: dose 2.7 mg/kg, route intravenous
# CONDITION_INFO: in vivo

[
  {
    "SMI": "COc1ccc2nccc(NC(=O)[C@]3(O)CC[C@@H](NCc4cc5c(cn4)OCCO5)CC3)c2n1",
    "SCALE_UNIT": "h",
    "half-life": 1.8
  }
]

---

# ASSAY_SUMMARY: Half life in Beagle dog at 2.6 mg/kg, iv
# Type: ADME, organism-based, Canis lupus familiaris
# Parameters: dose 2.6 mg/kg, route intravenous
# CONDITION_INFO: in vivo

[
  {
    "SMI": "COc1ccc2nccc(NC(=O)[C@]3(O)CC[C@@H](NCc4cc5c(cn4)OCCO5)CC3)c2n1",
    "SCALE_UNIT": "h",
    "half-life": 6.3
  }
]

---

# ASSAY_SUMMARY: AUC in cynomolgus monkey at 4.4 mg/kg, po
# Assay type: ADME, organism-based, Macaca fascicularis
# Design: dose 4.4 mg/kg, route oral
# CONDITION_INFO: plasma

[
  {
    "SMI": "COc1ccc2nccc(NC(=O)[C@]3(O)CC[C@@H](NCc4cc5c(cn4)OCCO5)CC3)c2n1",
    "SCALE_UNIT": "µg·h/mL",
    "AUC": 0.19
  }
]

---

# ASSAY_SUMMARY: Blood clearance in Beagle dog at 2.6 mg/kg, iv
# Format: ADME, organism-based, Canis lupus familiaris
# Design: dose 2.6 mg/kg, route intravenous
ENDPOINT_LABEL: clearance

[
  {
    "SMI": "COc1ccc2nccc(NC(=O)[C@]3(O)CC[C@@H](NCc4cc5c(cn4)OCCO5)CC3)c2n1",
    "MEASURED_VALUE": "0.504 L/h/kg"
  }
]

---

# TGT: Voltage-gated inwardly rectifying potassium channel KCNH2 (Homo sapiens)
# Sequence (Q12809 whole entry): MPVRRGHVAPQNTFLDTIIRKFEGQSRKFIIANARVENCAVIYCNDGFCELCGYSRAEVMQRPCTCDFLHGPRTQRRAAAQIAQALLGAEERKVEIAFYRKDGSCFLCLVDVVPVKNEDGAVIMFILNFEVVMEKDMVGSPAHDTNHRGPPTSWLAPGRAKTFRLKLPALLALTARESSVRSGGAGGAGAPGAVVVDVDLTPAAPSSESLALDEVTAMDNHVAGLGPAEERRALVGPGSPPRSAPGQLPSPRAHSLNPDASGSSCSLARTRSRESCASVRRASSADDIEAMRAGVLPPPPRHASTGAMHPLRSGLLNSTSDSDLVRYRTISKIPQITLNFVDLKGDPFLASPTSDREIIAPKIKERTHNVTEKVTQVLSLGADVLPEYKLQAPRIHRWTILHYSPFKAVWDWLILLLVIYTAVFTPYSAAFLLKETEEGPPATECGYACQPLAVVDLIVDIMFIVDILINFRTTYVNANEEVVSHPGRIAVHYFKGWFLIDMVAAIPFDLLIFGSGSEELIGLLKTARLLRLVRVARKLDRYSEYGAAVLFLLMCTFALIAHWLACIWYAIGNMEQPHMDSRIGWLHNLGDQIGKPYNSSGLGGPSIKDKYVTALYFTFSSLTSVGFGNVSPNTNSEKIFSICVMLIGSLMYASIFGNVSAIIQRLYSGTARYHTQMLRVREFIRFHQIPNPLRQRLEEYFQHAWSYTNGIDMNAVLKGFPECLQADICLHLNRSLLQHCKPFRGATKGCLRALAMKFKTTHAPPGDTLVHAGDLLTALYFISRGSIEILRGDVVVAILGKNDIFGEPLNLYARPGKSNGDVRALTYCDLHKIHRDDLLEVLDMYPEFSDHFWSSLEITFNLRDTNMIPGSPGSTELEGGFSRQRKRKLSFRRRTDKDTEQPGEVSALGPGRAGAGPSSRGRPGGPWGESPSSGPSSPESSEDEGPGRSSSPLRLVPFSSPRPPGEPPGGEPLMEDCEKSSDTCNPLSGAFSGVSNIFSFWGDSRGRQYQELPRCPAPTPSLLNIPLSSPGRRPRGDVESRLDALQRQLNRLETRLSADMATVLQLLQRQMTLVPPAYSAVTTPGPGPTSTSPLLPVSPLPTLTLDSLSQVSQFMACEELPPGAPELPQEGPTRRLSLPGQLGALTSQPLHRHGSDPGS
# ASSAY_SUMMARY: Inhibition of human ERG by whole cell patch clamp assay
pIC50: −log10 of the molar value.
Label scheme for pIC50: lower than 5 is not satisfied, 5 and above is satisfied.

[
  {
    "SMI": "COc1ccc2nccc(NC(=O)[C@H]3CC[C@H](NCc4cc5c(cn4)OCCO5)CC3)c2n1",
    "ASSIGNED_CATEGORY": "not satisfied"
  },
  {
    "SMI": "Cc1ccc2cccc(NC(=O)[C@]3(O)CC[C@@H](NCc4cc5c(cn4)OCCO5)CC3)c2n1",
    "ASSIGNED_CATEGORY": "satisfied"
  },
  {
    "SMI": "COc1ccc2nccc(NC(=O)[C@]3(O)CC[C@@H](NCc4cc5c(cn4)OCCO5)CC3)c2c1",
    "ASSIGNED_CATEGORY": "not satisfied"
  },
  {
    "SMI": "COc1cc(F)c2nccc(NC(=O)[C@]3(O)CC[C@@H](NCc4cc5c(cn4)OCCO5)CC3)c2c1",
    "ASSIGNED_CATEGORY": "not satisfied"
  },
  {
    "SMI": "COc1ccc2nccc(NC(=O)[C@H]3CC[C@H](NCc4ccc5c(c4)OCCO5)CC3)c2c1",
    "ASSIGNED_CATEGORY": "not satisfied"
  },
  {
    "SMI": "COc1ccc2nccc(NC(=O)[C@]3(O)CC[C@@H](NCc4ccc5c(c4)OCCO5)CC3)c2n1",
    "ASSIGNED_CATEGORY": "not satisfied"
  }
]
